Biological target: FLNA pentapeptide of SEQ ID NO: 1 (Bn-VAKGL) (Homo sapiens, UniProt P21333)
Test: FITC-NLX-based FLNA screening assay (inhibition of FITC-naloxone binding to Bn-VAKGL on streptavidin plates)
Conditions: read-out: Percent Binding Inhibition, FLNA-binding compound 1 μM; 10 nM FITC-NLX
Entries and their measured inhibition at 1 µM follow.
OBSERVABLE: inhibition at 1 µM (%)

INSERT INTO assay_data (compound, assayed_target, measured_number) VALUES
  ('COc1ccc(C(=O)N2CCOC23CCN(S(=O)(=O)c2ccc(OC)cc2)CC3)cc1', 'FLNA pentapeptide of SEQ ID NO: 1 (Bn-VAKGL) (Homo sapiens, UniProt P21333)', 43.6),
  ('OC(COc1ccc(Br)c(F)c1)CN1CCSCC1 (stereo not shown)', 'FLNA pentapeptide of SEQ ID NO: 1 (Bn-VAKGL) (Homo sapiens, UniProt P21333)', 38.7),
  ('O=S(=O)(c1ccc(Oc2ccccc2)cc1)N1CCC2(CC1)OCCN2S(=O)(=O)c1ccc(Oc2ccccc2)cc1 [Compound C0149M]', 'FLNA pentapeptide of SEQ ID NO: 1 (Bn-VAKGL) (Homo sapiens, UniProt P21333)', 62),
  ('COc1ccc(CCC(=O)CC2c3c(cc4c(c3OC)OCO4)CC[N+]2(C)C)cc1OC (stereo not shown)', 'FLNA pentapeptide of SEQ ID NO: 1 (Bn-VAKGL) (Homo sapiens, UniProt P21333)', 51.6),
  ('O=S(=O)(c1cccc(OC(F)(F)F)c1)N1CCC2(CC1)OCCN2S(=O)(=O)c1cccc(OC(F)(F)F)c1', 'FLNA pentapeptide of SEQ ID NO: 1 (Bn-VAKGL) (Homo sapiens, UniProt P21333)', 51.5),
  ('COc1ccc(C(=O)CC2c3c(cc4c(c3OC)OCO4)CC[N+]2(C)C)cc1OC (stereo not shown)', 'FLNA pentapeptide of SEQ ID NO: 1 (Bn-VAKGL) (Homo sapiens, UniProt P21333)', 48.2),
  ('CS(=O)(=O)c1ccc(S(=O)(=O)N2CCOC23CCNCC3)cc1 [Compound C0116M]', 'FLNA pentapeptide of SEQ ID NO: 1 (Bn-VAKGL) (Homo sapiens, UniProt P21333)', 62.9),
  ('O=C(c1ccc([N+](=O)[O-])cc1)N1CCC2(CC1)OCCN2S(=O)(=O)c1ccc([N+](=O)[O-])cc1', 'FLNA pentapeptide of SEQ ID NO: 1 (Bn-VAKGL) (Homo sapiens, UniProt P21333)', 43.9),
  ('O=C1CNC2(CCNCC2)N1Cc1ccccc1 [Compound C0114M]', 'FLNA pentapeptide of SEQ ID NO: 1 (Bn-VAKGL) (Homo sapiens, UniProt P21333)', 66.7),
  ('COc1ccc(CCC(=O)CC2c3c(cc4c(c3OC)OCO4)CC[N+]2(C)C)c(OC)c1 (stereo not shown)', 'FLNA pentapeptide of SEQ ID NO: 1 (Bn-VAKGL) (Homo sapiens, UniProt P21333)', 46.8),
  ('COc1ccc(NC(=O)N2CCC3(CC2)OCCN3C(=O)Nc2ccc(OC)cc2)cc1 [Compound C0151M]', 'FLNA pentapeptide of SEQ ID NO: 1 (Bn-VAKGL) (Homo sapiens, UniProt P21333)', 58.7),
  ('O=S(=O)(c1ccc2ccccc2c1)N1CCC2(CC1)OCCN2S(=O)(=O)c1ccc2ccccc2c1 [Compound C0140M]', 'FLNA pentapeptide of SEQ ID NO: 1 (Bn-VAKGL) (Homo sapiens, UniProt P21333)', 54.4),
  ('CC1CCC(C(C)C)C(OCC(O)CN2CCCCC2)C1 (stereo not shown)', 'FLNA pentapeptide of SEQ ID NO: 1 (Bn-VAKGL) (Homo sapiens, UniProt P21333)', 43.8),
  ('COc1ccc(OCC(O)CN2CC(C)OC(C)C2)cc1 (stereo not shown)', 'FLNA pentapeptide of SEQ ID NO: 1 (Bn-VAKGL) (Homo sapiens, UniProt P21333)', 46.9),
  ('COc1ccc(S(=O)(=O)N2CCC3(CC2)NCCC(=O)N3)cc1 [Compound C0142M]', 'FLNA pentapeptide of SEQ ID NO: 1 (Bn-VAKGL) (Homo sapiens, UniProt P21333)', 56),
  ('NS(=O)(=O)c1ccc(S(=O)(=O)N2CCC3(CC2)OCCN3S(=O)(=O)c2ccc(S(N)(=O)=O)cc2)cc1', 'FLNA pentapeptide of SEQ ID NO: 1 (Bn-VAKGL) (Homo sapiens, UniProt P21333)', 44.8);

###

System: mu opiate receptor (MOR)
Experiment: MOR agonist activity using [35S]GTPγS binding assay in striatal membranes
Assay type: biochemical
Conditions: Series C-2; 0.1 μM compound, relative to DAMGO
OBSERVABLE: % DAMGO (0.1 μM)

INSERT INTO measurements (compound, result) VALUES
  ('COc1ccc(S(=O)(=O)N2CCC3(CC2)NCCC(=O)N3)cc1 [Compound C0142M]', '97.8%'),
  ('CC(=O)c1ccc(S(=O)(=O)N2CCOC23CCNCC3)cc1', '197.4%'),
  ('CN1CCC2(CC1)NC(=O)CN2Cc1ccccc1 [Compound C0104M]', '99.5%'),
  ('CCCCN1CCC2(CC1)OCCN2S(=O)(=O)c1ccc(OC)cc1 [Compound C0102M]', '78.6%'),
  ('O=C1CN(Cc2ccccc2)C2(CCNCC2)N1 [Compound C0115M]', '105.7%'),
  ('CS(=O)(=O)c1ccc(S(=O)(=O)N2CCOC23CCN(CC2CC2)CC3)cc1 [Compound C0126M]', '108.5%'),
  ('COc1ccc(S(=O)(=O)N2CCOC23CCN(C(=O)OC(C)(C)C)CC3)cc1', '103.8%'),
  ('COc1ccc(S(=O)(=O)N2CCOC23CCN(C(C)C)CC3)cc1 [Compound C0133M]', '83.2%'),
  ('CCc1ccc(S(=O)(=O)N2CCOC23CCN(CC2CC2)CC3)cc1 [Compound C0135M]', '85.3%');

###

Test system: mu opiate receptor (MOR)
Assay: MOR agonist activity using [35S]GTPγS binding assay in striatal membranes
Format: biochemical
Conditions: 1 μM compound + BFNA relative to DAMGO + BFNA
Experimental: To assess the mu opiate receptor (MOR) agonist activity of positive compounds from the FLNA screening, compounds were tested in a [^35S]GTPγS binding assay using striatal membranes. […] The immunocomplexes so formed were collected by incubation at 25° C. for 30 minutes with 40 μl of agarose-conjugated protein A/G beads and centrifugation at 5,000×g at 4° C. for 5 minutes. […] The radioactivity in the suspension was determined by liquid scintillation spectrometry.
OBSERVABLE: % DAMGO + BFNA (%)

INSERT INTO results (compound, observable, measured_number) VALUES
  ('CC1CCC(C(C)C)C(OCC(O)CN2CC(C)OC(C)C2)C1 (stereo not shown) [Compound A3333]', '% DAMGO + BFNA', 136.7),
  ('CC1CCC(C(C)C)C(OCC(O)CN2CCSCC2)C1 (stereo not shown)', '% DAMGO + BFNA', 64.5),
  ('CC1CCC(C(C)C)C(OCC(O)CN2CCCCCCC2)C1 (stereo not shown)', '% DAMGO + BFNA', 214.3),
  ('CN(C)c1cccc(OCC(O)CN2CCc3ccccc3C2)c1 (stereo not shown)', '% DAMGO + BFNA', 109.6),
  ('CC1CN(CC(O)COc2ccccc2Br)CC(C)O1 (stereo not shown)', '% DAMGO + BFNA', 120.6),
  ('COc1ccc(OCC(O)CN2CCOc3ccccc32)cc1 (stereo not shown)', '% DAMGO + BFNA', 119.4),
  ('CCN(CC)CC(O)COC1CC(C)CCC1C(C)C (stereo not shown)', '% DAMGO + BFNA', 180.0),
  ('CC1CN(CC(O)COc2ccc(Br)c(Cl)c2)CC(C)O1 (stereo not shown)', '% DAMGO + BFNA', 134.2),
  ('CC1CCC(C(C)C)C(OCC(O)CN2CCN(CCCN3CCOCC3)CC2)C1 (stereo not shown)', '% DAMGO + BFNA', 459.3),
  ('COc1ccc(OCC(O)CN2CC(C)OC(C)C2)cc1 (stereo not shown)', '% DAMGO + BFNA', 226.3);

###

Biological target: FLNA pentapeptide of SEQ ID NO: 1 (Bn-VAKGL) (Homo sapiens)
Test: FITC-NLX-based FLNA screening assay (inhibition of FITC-naloxone binding to Bn-VAKGL on streptavidin plates)
Settings: FLNA-binding compound 0.1 μM; 10 nM FITC-NLX
Entries and their measured Percent Binding Inhibition follow.
OBSERVABLE: Percent Binding Inhibition (%)

INSERT INTO assay_data (compound, measured_number) VALUES
  ('COc1ccc(OCC(O)CN2CCc3ccccc32)cc1 (stereo not drawn)', 40.4),
  ('COc1ccc(OCC(O)CN2CCCc3ccccc32)cc1 (stereo not drawn)', 39.1),
  ('CC1CCC(C(C)C)C(OCC(O)CN2CCc3ccccc32)C1 (stereo not drawn)', 50.0),
  ('CC1CCC(C(C)C)C(OCC(O)CN2CC(C)OC(C)C2)C1 (stereo not drawn)', 48.5),
  ('COc1ccc(OCC(O)CN2CCc3cc4c(c(OC)c3C2)OCO4)cc1 (stereo not drawn)', 39.1),
  ('CC1CCC(C(C)C)C(OCC(O)CN2CCOc3ccccc32)C1 (stereo not drawn)', 45.4);
